residual activity values, listed per item
# STUDY_TARGET: Protein kinase C, PKC; classical (Rattus norvegicus) (UniProt P05696+P68403+P63319)
# RUN_DESCRIPTION: The percent stimulation or inhibition of protein kinase C III activity was determined for phosphatidylserine (PS) and diolein(PS+DO) in the presence of [Ca2+]
# Type: protein assay
# Design: concentration or dose not given beside the values
# MEASUREMENT_CONDITIONS: values are per cent of control

INPUT_SMILES | residual activity (%)
Oc1ccc(C(=C2CCCCCC2)c2ccc(O)cc2)cc1 | 71
CCN(CC)CCOc1ccc(C(=C(C#N)c2ccccc2)c2ccc(OCCN(CC)CC)cc2)cc1 | 10
Cc1ccc(/C(=C(/C#N)c2ccccc2)c2ccc(O)cc2)cc1 | 95
CC/C(=C(/c1ccc(O)cc1)c1ccc(OCCN(C)C)cc1)c1ccccc1 | 14
COc1ccc(/C(=C(\C#N)c2ccccc2)c2ccc(O)cc2)cc1 | 100

Where do these numbers come from? They come from ChEMBL document CHEMBL1126156.
